Quick reference: Hipp-Glu (% conversion) of the listed items.
Assay: Conversion of Hipp-Glu by purified HCPB mutants, 30 minutes, HPLC (Example 17)
Type: biochemical
Details: enzyme 2.5 μg/ml; 0.5 mM substrate; 30 minutes at 37° C.
// return numeric value only (unit: %, not printed)

See these solved cases before continuing.
[G251N,D253K]: HCPB mutant with G251N and D253K, (His)6-c-myc tag (protein, UniProt P15086 111-417, looked up, variant G251N D253K, (His)6-c-myc tag) Carboxypeptidase B: ATGHSYEKYNKWETIEAWTQQVATENPALISRSVIGTTFEGRAIYLLKVGKAGQNKPAIFMDCGFHAREWISPAFCQWFVREAVRTYGREIQVTELLDKLDFYVLPVLNIDGYIYTWTKSRFWRKTRSTHTGSSCIGTDPNRNFDAGWCEIGASRNPCDETYCGPAAESEKETKALADFIRNKLSSIKAYLTIHSYSQMMIYPYSYAYKLGENNAELNALAKATVKELASLHGTKYTYGPGATTIYPAAGNSKDWAYDQGIRYSFTFELRDTGRYGFLLPESQIRATCEETFLAIKYVASYVLEHLY :: 62.4
[G251N,D253R]: HCPB mutant with G251N and D253R, (His)6-c-myc tag (protein, UniProt P15086 111-417, looked up, variant G251N D253R, (His)6-c-myc tag) Carboxypeptidase B: ATGHSYEKYNKWETIEAWTQQVATENPALISRSVIGTTFEGRAIYLLKVGKAGQNKPAIFMDCGFHAREWISPAFCQWFVREAVRTYGREIQVTELLDKLDFYVLPVLNIDGYIYTWTKSRFWRKTRSTHTGSSCIGTDPNRNFDAGWCEIGASRNPCDETYCGPAAESEKETKALADFIRNKLSSIKAYLTIHSYSQMMIYPYSYAYKLGENNAELNALAKATVKELASLHGTKYTYGPGATTIYPAAGNSRDWAYDQGIRYSFTFELRDTGRYGFLLPESQIRATCEETFLAIKYVASYVLEHLY :: 8.8

// next entry
**Q:** Requested read-out: Hipp-Glu (% conversion). Entry: [I201S, D253K]: HCPB mutant with I201S and D253K (protein, UniProt P15086 111-417, looked up, variant I201S D253K) Carboxypeptidase B: ATGHSYEKYNKWETIEAWTQQVATENPALISRSVIGTTFEGRAIYLLKVGKAGQNKPAIFMDCGFHAREWISPAFCQWFVREAVRTYGREIQVTELLDKLDFYVLPVLNIDGYIYTWTKSRFWRKTRSTHTGSSCIGTDPNRNFDAGWCEIGASRNPCDETYCGPAAESEKETKALADFIRNKLSSIKAYLTIHSYSQMMSYPYSYAYKLGENNAELNALAKATVKELASLHGTKYTYGPGATTIYPAAGGSKDWAYDQGIRYSFTFELRDTGRYGFLLPESQIRATCEETFLAIKYVASYVLEHLY
**A:** 4.6
